- tested_system: T1, SARS-CoV2 Spike ecto foldon Trimer expressed with a C-terminal myc-myc-hexahistidine (SARS-CoV-2, UniProt P0DTC2 14-1213)
- T1 construct: extracellular domain
- experiment: SPR Biacore, mAb captured by anti-hFc, 25C
reported_metric: kon (M⁻¹ s⁻¹)
Numbers only, in M⁻¹ s⁻¹.

# binder, reported_metric, uom, measured_number
data = [
    ("mAb14289 (antibody, V domains shown) VH: QVQLVQSGPEVKKPGASVKVSCKASGYTFTSYAISWVRQAPGQGLEWMGWISAYNGNTNYAQKLQGRVTMTTDTFTSTAYMELRSLRSDDTAVYYCAVPADHITFDYWGQGTLVTVSS VL: EIVLTQSPGTLSLSPGERATLSCRASQSVSSYLAWYQQKPGQAPRLLIHGASSRATGIPDRFSGSGSGTDFTLTISRLEPEDFAVYYCQQYGSSFLTFGGGTKVEIKR", "kon", "M⁻¹ s⁻¹", 912000),
    ("mAb14280 (antibody, V domains shown) VH: QVQLVQSGAEVKKPGASVRVSCKASGYTFTGNYIHWVRQAPGQGLEWMAWINPNSGGKNYAQKFQGRVTLTRDTSVNTAYMELSRLRSDDTAMYYCARDVNYNILTGPGGLWGQGTLVTVSS VL: QSALTQPPSASGSPGQSVTISCTGTSSDVGGYNFVSWYQQHPGKAPKLMIYEVSKRPSGVPDRFSGSKSGNTASLTVSGLQAEDEADYYCSSYAGSNNFVFGTGTKVTVLG", "kon", "M⁻¹ s⁻¹", "1.99e+06"),
]

Now, please, on to the next binder.
mAb14281 (antibody, V domains shown) VH: QVQLVQSGADVKKPGASVKVSCKTSGYIFTGYYIHWVRQAPGQGLEWMGWINPNSGGTNSAQKFQGRVTMTRDTSISTVYMELSRLRSDDTAVYYCAKSNSFSVLDYNFDYWGQGTLVTVSS VL: SSELTQDPAVSVALGQTVRITCQGDSLRSYYASWYQQKPGQAPVLVIYDKNNRPSGIPDRFSGSSSGNTASLTITGAQAEDEADYYCNSRDSSRNHLVVFGGGTKLTVLG yielded kon of 834000

FYI, the data here is from patent US20260069689A1.
